Molecular target: Human CARM1 (PRMT4) (Homo sapiens, UniProt Q86X55)
Sequence (Q86X55 2-585 isoform Q86X55-1): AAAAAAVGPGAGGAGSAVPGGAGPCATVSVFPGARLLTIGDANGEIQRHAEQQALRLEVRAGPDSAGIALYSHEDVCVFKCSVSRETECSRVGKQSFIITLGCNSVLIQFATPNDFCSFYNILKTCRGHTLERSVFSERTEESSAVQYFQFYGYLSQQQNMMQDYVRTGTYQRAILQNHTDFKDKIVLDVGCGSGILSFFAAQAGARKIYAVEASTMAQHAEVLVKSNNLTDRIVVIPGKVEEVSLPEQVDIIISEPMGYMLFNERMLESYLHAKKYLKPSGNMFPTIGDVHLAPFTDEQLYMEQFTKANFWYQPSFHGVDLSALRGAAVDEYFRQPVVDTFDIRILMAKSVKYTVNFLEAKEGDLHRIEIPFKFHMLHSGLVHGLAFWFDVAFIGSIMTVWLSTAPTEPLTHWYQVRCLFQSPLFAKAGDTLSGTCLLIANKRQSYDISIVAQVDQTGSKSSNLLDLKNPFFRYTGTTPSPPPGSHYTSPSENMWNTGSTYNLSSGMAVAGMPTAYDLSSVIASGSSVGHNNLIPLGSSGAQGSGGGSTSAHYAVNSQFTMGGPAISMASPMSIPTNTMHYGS
So I've got a bunch of compounds here, and I need their pIC50 values.
One number for each entry, as −log10 of the molar value.

Study these solved cases before continuing.
>  <COMPOUND>
CC(C)n1ncc2c(C(=O)NCc3c(F)cccc3F)cc(-c3cccc(CNCCN)c3)nc21

>  <SYSTEM>
Human CARM1 (PRMT4) (Homo sapiens, UniProt Q86X55)

>  <pIC50>
7.63

$$$$
>  <COMPOUND>
NCCNCc1ccc(-c2ccc3ncn(Cc4cccc(C(=O)N5CCCC5)c4)c3c2)cc1

>  <SYSTEM>
Human CARM1 (PRMT4) (Homo sapiens, UniProt Q86X55)

>  <pIC50>
6.12

$$$$
>  <COMPOUND>
CNCCN(C)Cc1cccc(-c2cc(C(=O)NCc3c(C)cc(C)[nH]c3=O)c3cnn(C(C)C)c3c2)c1

>  <SYSTEM>
Human CARM1 (PRMT4) (Homo sapiens, UniProt Q86X55)

>  <pIC50>
6.74

$$$$
>  <COMPOUND>
COCCNC(=O)c1cccc(Cn2cnc3ccc(-c4ccc(CNCCN)cc4)cc32)c1

>  <SYSTEM>
Human CARM1 (PRMT4) (Homo sapiens, UniProt Q86X55)

>  <pIC50>
5.03

$$$$
>  <COMPOUND>
CNCCN(C)Cc1cccc(-c2cc(C(=O)NCc3c(C)cc(C)[nH]c3=O)c(C)c3[nH]ncc23)c1

>  <SYSTEM>
Human CARM1 (PRMT4) (Homo sapiens, UniProt Q86X55)

>  <pIC50>
5.37

$$$$
>  <COMPOUND>
CNCCN(C)Cc1cccc(-c2cc(C(=O)N3CCOCC3)c3cnn(C(C)C)c3n2)c1

>  <SYSTEM>
Human CARM1 (PRMT4) (Homo sapiens, UniProt Q86X55)

>  <pIC50>
6.34

$$$$
>  <COMPOUND>
CNCCN(C)Cc1cccc(-c2cc(Nc3ccncc3)c3cnn(C(C)C)c3n2)c1

>  <SYSTEM>
Human CARM1 (PRMT4) (Homo sapiens, UniProt Q86X55)

>  <pIC50>
7.89

$$$$
>  <COMPOUND>
CNCCN(C)Cc1cc(-c2cc(C(=O)NC3CCOCC3)c3cnn(C(C)C)c3n2)ccc1F

>  <SYSTEM>
Human CARM1 (PRMT4) (Homo sapiens, UniProt Q86X55)

>  <pIC50>
6.88

$$$$
>  <COMPOUND>
CNCCN(C)Cc1cccc(-c2cc(C(=O)N[C@@H](C)c3ccccc3)c3cn(Cc4ccncc4)nc3n2)c1

>  <SYSTEM>
Human CARM1 (PRMT4) (Homo sapiens, UniProt Q86X55)

>  <pIC50>
7.52

$$$$
>  <COMPOUND>
CN(CCN)Cc1cccc(-c2nc(NC3CCOCC3)c3cnn(C4CC4)c3n2)c1

>  <SYSTEM>
Human CARM1 (PRMT4) (Homo sapiens, UniProt Q86X55)

>  <pIC50>
8.21

$$$$

Give one value of pIC50 per listed compound.
1. Cc1cc(C)c(CN2Cc3ccc(-c4ccc(CNCCN)cc4)cc3C2=O)c(=O)[nH]1
2. CN(CCN)Cc1cccc(-c2nc(NCc3cn4ccsc4n3)c3cnn(C4CC4)c3n2)c1
3. CCN(Cc1cccnc1)C(=O)c1cc(-c2cccc(CN(C)CCN)c2)nc2c1cnn2C(C)C
4. CC(C)n1ncc2c(C(=O)NCc3ccccc3Cl)cc(-c3cccc(CN(C)CCN)c3)nc21

[4.76, 8.49, 7.62, 7.58]

Give one value of pIC50 per listed compound.
1. CNCCN(C)Cc1cccc(-c2cc(C(=O)N3CCC(OC)C3)c3cnn(C(C)C)c3n2)c1 (stereo not shown)
2. CC(C)n1ncc2c(C(=O)N(C)Cc3ccccc3)cc(-c3cccc(CNCCN)c3)nc21

6.63
7.32
